measurement_target: PRKCD (human) (UniProt Q05655)
Sequence (Q05655 whole entry, looked up): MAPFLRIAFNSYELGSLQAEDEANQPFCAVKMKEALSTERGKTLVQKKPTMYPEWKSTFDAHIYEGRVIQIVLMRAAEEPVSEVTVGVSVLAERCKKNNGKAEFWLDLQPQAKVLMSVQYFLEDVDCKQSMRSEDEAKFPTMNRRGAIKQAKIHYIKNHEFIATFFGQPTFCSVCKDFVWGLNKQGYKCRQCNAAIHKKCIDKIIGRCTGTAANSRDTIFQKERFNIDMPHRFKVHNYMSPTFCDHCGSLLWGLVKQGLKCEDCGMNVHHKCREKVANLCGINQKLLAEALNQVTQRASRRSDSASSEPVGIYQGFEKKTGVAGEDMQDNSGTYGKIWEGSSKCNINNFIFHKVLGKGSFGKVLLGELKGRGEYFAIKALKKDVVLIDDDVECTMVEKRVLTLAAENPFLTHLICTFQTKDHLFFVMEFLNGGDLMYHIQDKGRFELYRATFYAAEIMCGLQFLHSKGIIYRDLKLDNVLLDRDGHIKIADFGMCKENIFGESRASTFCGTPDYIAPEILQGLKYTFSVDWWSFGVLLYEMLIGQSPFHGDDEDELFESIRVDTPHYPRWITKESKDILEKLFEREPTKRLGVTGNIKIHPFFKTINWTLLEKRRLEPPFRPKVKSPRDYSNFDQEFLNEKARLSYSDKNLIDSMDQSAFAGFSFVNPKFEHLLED
method_description: split-luciferase competition binding
measurement_setup: compound 10.0 µM
measured_quantity: inhibition (%)

COc1cc2c(Nc3ccc(NC(=O)c4ccccc4)cc3)ncnc2cc1OCCCN1CCOCC1    0
Cc1ccccc1C(=O)c1ccc(Nc2ccc(Br)cc2N)cc1Cl    0
NC(=O)c1ccc(-c2nc(-c3ccccn3)c(-c3ccc4c(c3)OCO4)[nH]2)cc1    0
O=C(NC(NC(=S)Nc1ccc(F)c([N+](=O)[O-])c1)C(Cl)(Cl)Cl)C(c1ccccc1)c1ccccc1 (stereo not given)    0
COc1cc(CC2C(=O)OC[C@@H]2Cc2ccc(OC)c(OC)c2)ccc1O (stereo not given in full)    0
CS(=O)(=O)CCNCc1nc(-c2ccc3ncnc(Nc4ccc(OCc5cccc(F)c5)c(Cl)c4)c3c2)cs1    0
CN1CCC(Nc2ncc3ncnc(Nc4ccc(F)c(Cl)c4)c3n2)CC1    0
O=c1cc(N2CCOCC2)oc2c(-c3ccccc3)cccc12    0
O=S(=O)(c1cccc2c(Cl)cccc12)N1CCCNCC1    0
Nc1ncnc2[nH]nc(Nc3ccc(F)cc3)c12    0
